Provenance of the data: paper PMC11672637

Molecular target: AmpC
Assay: β-lactamase inhibition assay (nitrocefin)
Conditions: nitrocefin substrate; read-out: BLi, IC50 AmpC
Procedure: Recombinant AmpC, OXA-48 (residues 23–265) and VIM-2 (residues 27–266) were prepared from Escherichia coli based on previously established protocols. […] Enzymatic hydrolysis of the substrate was then monitored by a Cytation 5 imaging multimode reader (BioTek Instruments Inc., Winooski, VT, USA) at 486 nm and 300 nm for nitrocefin and imipenem, respectively, for 15 min. The rates of hydrolysis in the presence of the inhibitors were determined when the reaction rate plateaued. […]
quantity_name: IC50

q: Look up IC50 for this molecule: O=c1c(OCCC2CCCC2)c(-c2ccc(F)c(F)c2)oc2cc(O)cc(O)c12
a: 21 µM

q: Let us now turn to CN1CCCC1CCOc1cc(O)c2c(=O)c(OCCC(C)(C)C)c(-c3ccc(F)c(F)c3)oc2c1 (stereo not drawn)
a: > 50 µM

q: Let us now turn to CN1CCN(CCOc2cc(O)c3c(=O)c(OCCC4CCCC4)c(-c4ccc(F)c(F)c4)oc3c2)CC1
a: > 50 µM

q: Let us now turn to CC(C)(C)CCOc1c(-c2ccc(F)c(F)c2)oc2cc(OCC(=O)Nc3ccccc3)cc(O)c2c1=O
a: > 50 µM

q: Let us now turn to O=C(O)COc1cc(O)c2c(=O)c(OCCC3CCCC3)c(-c3ccc(F)c(F)c3)oc2c1
a: > 50 µM

q: Let us now turn to C[N+](C)(CCNC(=O)COc1cc(O)c2c(=O)c(OCCC3CCCCC3)c(-c3ccc(F)c(F)c3)oc2c1)CC(=O)[O-]
a: > 50 µM
